- Tested on: UniProt P10276
- Sequence (P10276 whole entry): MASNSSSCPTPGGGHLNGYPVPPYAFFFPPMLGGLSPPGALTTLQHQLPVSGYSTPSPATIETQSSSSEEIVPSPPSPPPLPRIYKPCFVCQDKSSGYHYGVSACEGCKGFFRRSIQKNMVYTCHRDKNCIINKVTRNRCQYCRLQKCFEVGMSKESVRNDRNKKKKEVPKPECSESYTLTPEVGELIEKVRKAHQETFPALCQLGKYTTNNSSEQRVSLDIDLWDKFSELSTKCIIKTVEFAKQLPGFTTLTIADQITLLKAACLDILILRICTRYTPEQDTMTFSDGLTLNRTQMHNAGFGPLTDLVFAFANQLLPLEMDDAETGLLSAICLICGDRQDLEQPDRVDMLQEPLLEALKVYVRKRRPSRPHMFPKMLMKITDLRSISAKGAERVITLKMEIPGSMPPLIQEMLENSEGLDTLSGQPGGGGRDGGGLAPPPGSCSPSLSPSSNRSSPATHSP
Readout name: IC50 (nM)
API: value field is a number in nM; no unit string.

Q: Item `CC(=C\c1coc2cc3c(cc2c1=O)C(C)(C)CCC3(C)C)/C=C(\C)C(=O)O` has what recorded IC50?
Result: 15
